Values from patent US20240116947A1

Target Or Test System: UniProt:P36897
Measurement Description: ADP-GLO Kinases assay, inhibition of ALK5 enzymatic activity
Format: biochemical
Measurement Setup: Table 4; potency bins; purified recombinant human ALK5, ADP-Glo, 25° C.; read-out: ALK5 IC50
Parameter: IC50

| Compound | IC50 |
| --- | --- |
| CN1CCN(CCC(=O)Nc2cc(N3CCOc4cnc(-c5cc(Cl)ccc5F)cc43)ccn2)C(=O)C1 [Example 25] | < 1 nM |
| Nc1cc(N2CCOc3cnc(-c4cc(C5CC5)ccc4F)cc32)ccn1 [Example 12] | 1 to 5 nM |
| CN1CC2(C1)CN(CC(=O)Nc1cc(N3CCOc4cnc(-c5cc(Cl)ccc5F)cc43)ccn1)CCO2 [Example 54] | < 1 nM |
| CN1CC2CC1CN2CC(=O)Nc1cc(N2CCOc3cnc(-c4cc(Cl)ccc4F)cc32)ccn1 (stereo not shown) [Example 52] | < 1 nM |
| O=C(CCN1CCN(CCC(=O)Nc2cc(N3CCOc4cnc(-c5cc(Cl)ccc5F)cc43)ccn2)CC1)NCCO [Example 35] | < 1 nM |

// next item, IC50 requested
Lookup: If you can, please state the reported IC50 value of Fc1ccc(Cl)cc1-c1cc2c(cn1)OCCN2c1ccnc2[nH]ncc12 [Example 15] .
Found: 1 to 5 nM

----------
Target Or Test System: human ALK5 (Homo sapiens (Human))
Measurement Description: ADP-GLO Kinases assay, inhibition of ALK5 enzymatic activity
Format: biochemical
Measurement Setup: Table 4; potency bins; purified recombinant human ALK5, ADP-Glo, 25° C.; read-out: ALK5 IC50
pIC50: −log10 of the molar value.
Parameter: pIC50

# example entries with known answers
| Structure Smiles | Target Or Test System | pIC50 |
| --- | --- | --- |
| CN1CCN(CCC(=O)Nc2cc(N3CCOc4c3cc(-c3cc(Cl)ccc3F)nc4N)ccn2)CC1 | human ALK5 (Homo sapiens (Human)) | > 9.00 |
| CN1CCN(CCC(=O)Nc2cc(N3CCOc4c3cc(-c3cc(Cl)ccc3F)nc4C(F)(F)F)ccn2)CC1 | human ALK5 (Homo sapiens (Human)) | 8.00 to 8.30 |
| CN1CCN(CCC(=O)Nc2cc(N3CCOc4cnc(-c5cc(Cl)ncc5F)cc43)ccn2)CC1 | human ALK5 (Homo sapiens (Human)) | > 9.00 |
| Nc1cc(N2CCOc3cnc(-c4cccc(Cl)c4)cc32)ccn1 | human ALK5 (Homo sapiens (Human)) | 8.00 to 8.30 |

Okay, next one:
Lookup: Param item = CS(=O)(=O)CCNCCC(=O)Nc1cc(N2CCOc3cnc(-c4cc(Cl)ccc4F)cc32)ccn1 ; retrieve measured pIC50.
Found: > 9.00

----------
Listed below: pIC50 values for each entry.
Target Or Test System: UniProt P36897
Measurement Description: ADP-GLO Kinases assay, inhibition of ALK5 enzymatic activity
Type: biochemical
Measurement Setup: Table 4; potency bins; purified recombinant human ALK5, ADP-Glo, 25° C.; read-out: ALK5 IC50
pIC50: −log10 of the molar value.

Solved entries:
| Compound | pIC50 |
| --- | --- |
| COCCC(=O)Nc1cc(N2CCOc3cnc(-c4cc(Cl)ccc4F)cc32)ccn1 | 8.00 to 8.30 |
| CS(=O)(=O)NCCC(=O)Nc1cc(N2CCOc3cnc(-c4cc(Cl)ccc4F)cc32)ccn1 | > 9.00 |
| Nc1nc(-c2cc(Cl)ccc2F)cc2c1OCCN2c1ccncc1 | 8.00 to 8.30 |
| Nc1cc(N2CCOc3cnc(-c4nc(Cl)ccc4F)cc32)ccn1 | 8.00 to 8.30 |
| CN(CCO)CCC(=O)Nc1cc(N2CCOc3cnc(-c4cc(Cl)ccc4F)cc32)ccn1 | > 9.00 |

Lookup: pIC50 lookup needed for NC(=O)CCN1CCN(CCC(=O)Nc2cc(N3CCOc4cnc(-c5cc(Cl)ccc5F)cc43)ccn2)CC1 , thanks.
Found: > 9.00

Lookup: Reported pIC50, compound COC(=O)CN(C)CCC(=O)Nc1cc(N2CCOc3cnc(-c4cc(Cl)ccc4F)cc32)ccn1 : ____
Found: > 9.00

----------
Target Or Test System: human ALK5 (Homo sapiens (Human))
Measurement Description: ADP-GLO Kinases assay, inhibition of ALK5 enzymatic activity
Assay type: biochemical
Measurement Setup: Table 4; potency bins; purified recombinant human ALK5, ADP-Glo, 25° C.; read-out: ALK5 IC50
// values below are reported IC50

Example entries and their recorded answers appear below.
| Molecule | Result Value |
| --- | --- |
| O=C(CCN(CCO)CCO)Nc1cc(N2CCOc3cnc(-c4cc(Cl)ccc4F)cc32)ccn1 [Example 18] | < 1 nM |
| CN(CCC(=O)Nc1cc(N2CCOc3cnc(-c4cc(Cl)ccc4F)cc32)ccn1)CCS(C)(=O)=O [Example 27] | 1 to 5 nM |
| CN1CCC(CCC(=O)Nc2cc(N3CCOc4cnc(-c5cc(Cl)ncc5F)cc43)ccn2)CC1 [Example 41] | < 1 nM |

Would you kindly look at the next entry?
Lookup: Give human ALK5 (Homo sapiens (Human)) IC50 for CN1CCN(CCNC(=O)Nc2cc(N3CCOc4cnc(-c5cc(Cl)ccc5F)cc43)ccn2)CC1 [Example 55]
Found: < 1 nM

----------
Target Or Test System: human ALK5 (Homo sapiens (Human), UniProt P36897)
Sequence (P36897 80-503 limits assumed): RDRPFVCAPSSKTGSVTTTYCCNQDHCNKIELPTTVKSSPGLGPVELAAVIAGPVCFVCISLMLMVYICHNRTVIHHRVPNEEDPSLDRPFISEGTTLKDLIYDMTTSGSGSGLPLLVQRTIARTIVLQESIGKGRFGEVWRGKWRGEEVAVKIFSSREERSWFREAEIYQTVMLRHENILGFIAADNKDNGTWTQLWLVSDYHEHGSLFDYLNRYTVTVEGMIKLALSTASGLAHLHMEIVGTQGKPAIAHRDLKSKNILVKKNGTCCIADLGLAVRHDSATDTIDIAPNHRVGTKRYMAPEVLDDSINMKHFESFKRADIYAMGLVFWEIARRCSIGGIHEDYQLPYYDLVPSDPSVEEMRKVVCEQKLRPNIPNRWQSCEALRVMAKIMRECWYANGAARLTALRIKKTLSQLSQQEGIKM
Measurement Description: ADP-GLO Kinases assay, inhibition of ALK5 enzymatic activity
Assay type: biochemical
Measurement Setup: Table 4; potency bins; purified recombinant human ALK5, ADP-Glo, 25° C.; read-out: ALK5 IC50
pIC50: −log10 of the molar value.
Parameter: pIC50

| Structure Smiles | pIC50 |
| --- | --- |
| CN1CCN(CCC(=O)Nc2cc(N3CCOc4cnc(-c5cc(Cl)ccc5F)cc43)ccn2)CC1 | > 9.00 |
| CN1CCC(CCC(=O)Nc2cc(N3CCOc4cnc(-c5nc(Cl)ccc5F)cc43)ccn2)CC1 | > 9.00 |
| CC(C)c1ccc(F)c(-c2cc3c(cn2)OCCN3c2ccnc(N)c2)c1 | 8.30 to 9.00 |

Here is another compound to look at.
Lookup: Consider the compound shown here: CN1CCN(CCC(=O)Nc2cc(N3CCOc4cnc(-c5nc(Cl)ccc5F)cc43)ccn2)CC1 What is its recorded pIC50?
Found: > 9.00

----------
Target Or Test System: UniProt:P36897
Measurement Description: ADP-GLO Kinases assay, inhibition of ALK5 enzymatic activity
Type: biochemical
Measurement Setup: statements in running text; read-out: potency (IC50) with respect to inhibitory activity on ALK5
pIC50: −log10 of the molar value.
Parameter: pIC50

Lookup: # pIC50 lookup, item Fc1ccc(Cl)cc1-c1cc2c(cn1)OCCN2c1ccn[nH]1 [Example C1, reference compound]
Found: < 5.05

----------
Target Or Test System: human ALK5 (Homo sapiens (Human))
Measurement Description: ADP-GLO Kinases assay, inhibition of ALK5 enzymatic activity
Format: biochemical
Measurement Setup: Table 4; potency bins; purified recombinant human ALK5, ADP-Glo, 25° C.; read-out: ALK5 IC50
Here the recorded IC50 is given for each entry.

Study these solved cases before continuing.
| Compound | Result Value |
| --- | --- |
| CN1CCC(CCC(=O)Nc2cc(N3CCOc4cnc(-c5cc(Cl)ccc5F)cc43)ccn2)CC1 | < 1 nM |
| CN1CC2(C1)CN(CC(=O)Nc1cc(N3CCOc4cnc(-c5cc(Cl)ccc5F)cc43)ccn1)C2 | < 1 nM |
| CN(CCC(=O)Nc1cc(N2CCOc3cnc(-c4cc(Cl)ccc4F)cc32)ccn1)C1COC1 | < 1 nM |
| Fc1ccc(Cl)cc1-c1cc2c(cn1)OCCN2c1ccnc2[nH]cnc12 | 5 to 10 nM |
| COC(=O)CC1CN(CCC(=O)Nc2cc(N3CCOc4cnc(-c5cc(Cl)ccc5F)cc43)ccn2)CCN1 (centres unmarked) | < 1 nM |
| Nc1cc(N2CCOc3cnc(-c4cc(F)ccc4F)cc32)ccn1 | 5 to 10 nM |

Lookup: I am curious: what IC50 value has been reported for CC(C)c1ccc(F)c(-c2cc3c(cn2)OCCN3c2ccnc(NC(=O)CCN3CCN(C)CC3)c2)c1 ?
Found: < 1 nM

Lookup: May I ask what IC50 has been recorded for O=C(CCN1CCN(CCN(CCO)CCO)CC1)Nc1cc(N2CCOc3cnc(-c4cc(Cl)ccc4F)cc32)ccn1 ?
Found: < 1 nM

----------
Target Or Test System: human ALK5 (Homo sapiens (Human))
Measurement Description: ADP-GLO Kinases assay, inhibition of ALK5 enzymatic activity
Format: biochemical
Measurement Setup: Table 4; potency bins; purified recombinant human ALK5, ADP-Glo, 25° C.; read-out: ALK5 IC50
Experimental: The enzymatic activity of compounds of the present invention was monitored measuring the formation of ADP using the ADP-GLO Kinases assay. Following the incubation of the purified enzyme, a substrate and ATP, the produced ADP was converted into ATP, which in turn was converted into light by Ultra-Glo Luciferase. […] After an incubation of 150 min, the reaction was stopped, and ADP production detected with ADP-Glo kit according to manufacturer's indications. […]
Parameter: IC50

Example cases with answers are listed next.
| Molecule | IC50 |
| --- | --- |
| Nc1cc(N2CCOc3cnc(-c4cc(Cl)ccc4F)cc32)ccn1 | 1 to 5 nM |
| Fc1ccc(Cl)cc1-c1cc2c(cn1)OCCN2c1ccncc1 | 5 to 10 nM |
| COC(=O)C1CN(CCC(=O)Nc2cc(N3CCOc4cnc(-c5cc(Cl)ccc5F)cc43)ccn2)CCN1 (stereo not shown) | < 1 nM |
| CNC(=O)CCN1CCN(CCC(=O)Nc2cc(N3CCOc4cnc(-c5cc(Cl)ccc5F)cc43)ccn2)CC1 | < 1 nM |
| CN(C)CCC(=O)Nc1cc(N2CCOc3cnc(-c4cc(Cl)ccc4F)cc32)ccn1 | < 1 nM |
| CS(=O)(=O)NCCN1CCN(CCC(=O)Nc2cc(N3CCOc4cnc(-c5cc(Cl)ccc5F)cc43)ccn2)CC1 | < 1 nM |

Lookup: // query IC50 value for entry COC(=O)C1CN(CCC(=O)Nc2cc(N3CCOc4cnc(-c5cc(Cl)ccc5F)cc43)ccn2)CCN1C (stereo not shown)
Found: < 1 nM

Lookup: Given the entry CN1CCN(CCC(=O)Nc2cc(N3CCOc4cnc(-c5cc(C6CC6)ccc5F)cc43)ccn2)CC1 , report its measured IC50.
Found: < 1 nM

Lookup: Given the entry O=C(CCN1CCOCC1)Nc1cc(N2CCOc3cnc(-c4cc(Cl)ccc4F)cc32)ccn1 , report its measured IC50.
Found: < 1 nM

Lookup: What value of IC50 has been reported for the following molecule? CN(CCNS(C)(=O)=O)CCC(=O)Nc1cc(N2CCOc3cnc(-c4cc(Cl)ccc4F)cc32)ccn1
Found: < 1 nM
